Cited source: the supplement of paper PMC8007513

- System: Trichoderma virens ATCC 9645
- RUN DESCRIPTION: growth yield (OD600) with compound + IPBC relative to untreated control; higher = less growth inhibition
- CONDITION LABEL: compound concentration: 100 uM; IPBC concentration: 200 ng/ml; 72 h
Counter-ions that a name gives are not always drawn. The campaign covered roughly 1,300 compounds. About 130 (10%) showed an effect of 50% or more. The entries come from a sample that favours strong results as a whole.
ENDPOINT: growth yield

COMPOUND	ENDPOINT	MEASURED
CCc1cccc(CC)c1NC(=O)CN(CC(=O)O)CC(=O)O [Etifenin] + CCCCNC(=O)OCC#CI [3-iodo-2-propynyl butylcarbamate (IPBC)]	growth yield	94.4%
OC(CCN1CCCCC1)(c1ccccc1)C1CCCCC1 (stereo not given) [Trihexyphenidyl-D,L Hydrochloride] + CCCCNC(=O)OCC#CI [3-iodo-2-propynyl butylcarbamate (IPBC)]	growth yield	102%
CC(C)(C)NC[C@@H](O)COc1cccc2c1CCCC2=O [(+) -Levobunolol hydrochloride] + CCCCNC(=O)OCC#CI [3-iodo-2-propynyl butylcarbamate (IPBC)]	growth yield	99.1%
O=C(O)CN(CCN(CC(=O)O)CC(=O)O)CCN(CC(=O)O)CC(=O)O [Pentetic acid] + CCCCNC(=O)OCC#CI [3-iodo-2-propynyl butylcarbamate (IPBC)]	growth yield	88.4%
CCC[C@@H]1C[C@@H](C(=O)N[C@@H]([C@H]2O[C@H](SC)[C@H](O)[C@@H](O)[C@H]2O)[C@@H](C)O)N(C)C1 [Lincomycin hydrochloride] + CCCCNC(=O)OCC#CI [3-iodo-2-propynyl butylcarbamate (IPBC)]	growth yield	94.6%
